Target Of Assay: T1, human LIV-1 (human, UniProt Q13433 29-755)
T1 sequence (looked up): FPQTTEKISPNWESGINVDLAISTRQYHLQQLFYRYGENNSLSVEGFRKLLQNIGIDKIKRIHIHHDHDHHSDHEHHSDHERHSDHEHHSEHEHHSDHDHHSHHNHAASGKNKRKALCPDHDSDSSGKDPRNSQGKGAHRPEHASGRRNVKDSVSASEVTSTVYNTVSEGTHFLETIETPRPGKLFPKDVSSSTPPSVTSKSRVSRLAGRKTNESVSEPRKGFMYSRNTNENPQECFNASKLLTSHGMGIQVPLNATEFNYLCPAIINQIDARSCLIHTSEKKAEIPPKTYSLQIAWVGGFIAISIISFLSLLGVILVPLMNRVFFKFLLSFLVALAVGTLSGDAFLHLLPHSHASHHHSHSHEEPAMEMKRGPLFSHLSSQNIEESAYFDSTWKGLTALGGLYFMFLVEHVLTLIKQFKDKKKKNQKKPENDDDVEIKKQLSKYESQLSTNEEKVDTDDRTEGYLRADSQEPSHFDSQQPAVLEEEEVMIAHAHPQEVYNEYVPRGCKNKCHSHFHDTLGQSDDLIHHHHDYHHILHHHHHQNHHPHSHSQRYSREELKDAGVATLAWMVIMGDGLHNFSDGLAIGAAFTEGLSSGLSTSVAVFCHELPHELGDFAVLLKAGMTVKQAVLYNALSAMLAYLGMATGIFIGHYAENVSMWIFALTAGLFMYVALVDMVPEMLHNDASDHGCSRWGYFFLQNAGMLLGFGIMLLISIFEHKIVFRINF
Experiment Summary: cell-based or functional assay
# binarize ADCC reporter Top (RFU): threshold 100000 RFU inclusive, high side Fulfilled, low side Not fulfilled

# example entries with known answers
Binder: 290F10G10 (antibody, V domains shown, Tested as chimeric antibody) VH: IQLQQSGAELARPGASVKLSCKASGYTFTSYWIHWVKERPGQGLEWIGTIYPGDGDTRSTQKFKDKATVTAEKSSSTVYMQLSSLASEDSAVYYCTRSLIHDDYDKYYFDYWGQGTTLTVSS VL: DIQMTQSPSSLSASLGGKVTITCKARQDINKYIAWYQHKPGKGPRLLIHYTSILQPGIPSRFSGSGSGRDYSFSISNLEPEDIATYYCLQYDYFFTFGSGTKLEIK
Classification: Fulfilled
--
Binder: 108H1D4 (antibody, V domains shown, Tested as chimeric antibody) VH: EVKLVESGGDLVQPGGSRKLSCAASGFTFSDYGMAWFRQAPGKGPEWVAFISNLAYNIYYADTVTGRFTISRENARNTLYLEMSSLRSEDTAMYYCAREGGITTVPATDYFDYWGQGTTLTVSS VL: DIQMTQTTSSLSASLGDRVTFSCRASQDIRNYLNWYQQKPDGTVKLLIYYTSRLHSGVPSRFSGSGSGTDYSLTINNLEQEDLATYFCQQVNALPLTFGAGTKLELK
Classification: Fulfilled
--
Binder: 124H4D11 (antibody, V domains shown, Tested as chimeric antibody) VH: EVPLQQSGAELVRSGASVKLSCTASGFNIKDYYMHWVKQRPEQGLEWIGWIDPENGDTEYDPKFQGKATMTADTSSNTADLQLSSLTSEDTAVYYCNARYYAFDYWGQGTTLTVSS VL: DVLMTQTPLSLPVSLGDQASISCRSSQSIVHSNGNTYLEWYLQKPGQSPKLLIYKVSNRFSGVPDRFSGSGSGTEFTLKISRVEAEDLGVYYCFQGSQVPPTFGGGTRLEIK
Classification: Not fulfilled

Could you verify whether the entry 50H12B3 (antibody, V domains shown, Tested as chimeric antibody) VH: QVQLKQSGPGLVQPSQSLSITCTVSGFSLTSYGVHWVRQSPGKGLEWLGVIWTGGTTDYNAAFKSRLSISKDNSKSQVFFKMNSLQANDTAIYYCARGPSSYWGQGTLVTVSA VL: DIVMTQSQKFMSTSVGDRVSVTCKASQNVDTNVVWYQQKPGQSPKALIHSTSYRYSGVPDRFTGSGSGTDFTLTISNVQSEDLAEYFCQQYNNYPWTFGGGTKLEIK shows ADCC reporter Top (RFU) of no less than 100000 RFU?
Not fulfilled
